B1: FUT8 (parent)
chain: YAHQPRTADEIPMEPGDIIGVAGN

# Variants of: B1
# protocolText: protein stability index of a GFP-peptide fusion (GPS, HEK-293T) (PSI 1-6); higher = more stable;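 note: lentivirally expressed fusions sorted by FACS into six bins by GFP to DsRed ratio, PSI derived from sequencing read proportions per bin multiplied by bin number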
# details: c terminus: a fixed tail appended
Provide the recorded protein stability index for the entries that follow.
A bare number is all that is needed in reply.

Field request: protein stability index | item: T7V 3.89

Quick one: protein stability index of V21S ? 4.05

// protein stability index lookup, key: G16H 4.08

I am curious: what protein stability index value has been reported for M13S ? 4.07

Endpoint output: protein stability index of G16V . Value? 3.92

Return reported protein stability index; argument: P5G 3.96

Any idea what its protein stability index is? The variant is P12K 3.96

Consider the variant shown here: E14T What is its recorded protein stability index? 3.9

Entry I18Q has what protein stability index? 4.07

For the variant shown here, V21I , give the reported protein stability index. 3.93

Value lookup for protein stability index; key = P5V 3.92

Fill blank: measured protein stability index of the variant A22P is ____. 4.06

Every entry's value here was drawn from the supplement of paper PMC10567573.
